- Target desc: Corticotropin-releasing factor receptor 1 (Homo sapiens, UniProt P34998)
- Sequence (P34998 whole entry): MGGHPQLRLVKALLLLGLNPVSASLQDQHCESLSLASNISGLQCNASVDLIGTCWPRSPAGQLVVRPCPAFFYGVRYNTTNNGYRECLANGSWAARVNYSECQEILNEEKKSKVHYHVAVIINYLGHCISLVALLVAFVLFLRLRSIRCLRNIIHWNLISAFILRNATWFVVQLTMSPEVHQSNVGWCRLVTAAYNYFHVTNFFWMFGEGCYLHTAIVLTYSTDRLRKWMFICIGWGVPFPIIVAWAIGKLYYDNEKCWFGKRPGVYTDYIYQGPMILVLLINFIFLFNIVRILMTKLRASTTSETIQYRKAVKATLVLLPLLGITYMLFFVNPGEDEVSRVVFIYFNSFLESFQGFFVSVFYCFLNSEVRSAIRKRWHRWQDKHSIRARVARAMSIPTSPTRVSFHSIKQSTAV
- Protocol text: Displacement of [125I]sauvagine from human recombinant CRF1 receptor expressed in CHO cells by SPA
Recorded endpoint: IC50 (nM)

{"columns": ["Structure string", "Target desc", "IC50 / nM"],
 "data": [
  ["Cc1cc(-n2ccc(-c3nccs3)n2)c2c(n1)N(c1ccc([N+](=O)[O-])cc1C(F)(F)F)CC2", "Corticotropin-releasing factor receptor 1 (Homo sapiens, UniProt P34998)", 58.9],
  ["Cc1cc(-n2ccc(-c3nccs3)n2)c2c(n1)N(c1ccc(C(F)(F)F)cc1C(F)(F)F)CC2", "Corticotropin-releasing factor receptor 1 (Homo sapiens, UniProt P34998)", 27.5],
  ["Cc1cc(-n2ccc(-c3nccs3)n2)c2c(n1)N(c1ccc(C#N)cc1Cl)CC2", "Corticotropin-releasing factor receptor 1 (Homo sapiens, UniProt P34998)", 229],
  ["Cc1cc(-n2ccc(-n3cccn3)n2)c2c(n1)N(c1ccc(C#N)cc1Cl)CC2", "Corticotropin-releasing factor receptor 1 (Homo sapiens, UniProt P34998)", 115],
  ["Cc1cc(-n2ccc(-n3cccn3)n2)c2c(n1)N(c1ccc(C#N)cc1C)CC2", "Corticotropin-releasing factor receptor 1 (Homo sapiens, UniProt P34998)", 316],
  ["Cc1cc(-n2ccc(-c3nccs3)n2)c2c(n1)N(c1ccc(C#N)cc1C#N)CC2", "Corticotropin-releasing factor receptor 1 (Homo sapiens, UniProt P34998)", 7410],
  ["COc1ccc(N2CCc3c(-n4ccc(-c5nccs5)n4)cc(C)nc32)c(C)c1", "Corticotropin-releasing factor receptor 1 (Homo sapiens, UniProt P34998)", 53.7],
  ["COc1ccc(N2CCc3c(-n4ccc(-c5nccs5)n4)cc(C)nc32)c(C)n1", "Corticotropin-releasing factor receptor 1 (Homo sapiens, UniProt P34998)", 60.3]
]}

I = Cc1cc(-n2ccc(-c3nccs3)n2)c2c(n1)N(c1ccc(S(C)(=O)=O)cc1Cl)CC2
II = Cc1cc(-n2ccc(-c3nccs3)n2)c2c(n1)N(c1ccc(S(C)(=O)=O)cc1S(C)(=O)=O)CC2
Request: Which entry has a larger number for IC50, I or II ? Response format: the label of the selected entry.
Response: II
(II: 3890 nM, I: 2340 nM)

I = COc1ccc(N2CCc3c(-n4ccc(-c5nccs5)n4)cc(C)nc32)c(Cl)c1
II = COc1ccc(-n2ccc3c(-n4ccc(-c5nccs5)n4)cc(C)nc32)c(C)c1
III = Cc1cc(-n2ccc(-c3nccs3)n2)c2[nH]c(=O)n(-c3ccc(C(F)(F)F)cc3C(F)(F)F)c2n1
IV = Cc1cc(-n2ccc(-c3nccs3)n2)c2cnn(-c3ccc(C#N)cc3C)c2n1
Request: Endpoint returns the given molecules ordered by ascending IC50. Write the labels, ordered according to the request.
Response: I, II, IV, III
(I: 56.2 nM, II: 427 nM, IV: 2750 nM, III: 8320 nM)

All values here come from ChEMBL document CHEMBL1152302.
